Test system: CCRIS mutagenicity, Ames/micronucleus/aberration tests
Assay: CCRIS mutagenicity studies
Details: Test System: AMES SALMONELLA TYPHIMURIUM; Strain/Indicator: TA1537; Metabolic Activation: HAMSTER, LIVER, S-9, AROCLOR 1254; Method: STANDARD PLATE
Activity calls are given as the source filed them. The rule behind the calls is not given here.
Possible outcomes: yes = active, no = inactive

>  <compound>
C=C(C)OC(C)=O

>  <labelValue>
no

$$$$
>  <compound>
CCOC(=O)CC(=O)CCl

>  <labelValue>
no

$$$$
>  <compound>
Nc1ncn([C@@H]2O[C@H](CO)[C@@H](O)[C@@H]2O)c(=O)n1

>  <labelValue>
no

$$$$
>  <compound>
Nc1ccc(Cl)c(N)c1

>  <labelValue>
yes

$$$$
>  <compound>
Nc1ccc2ccccc2c1N=Nc1ccccc1

>  <labelValue>
no

$$$$
>  <compound>
CN(C)c1ccc(C(=O)c2ccc(N(C)C)cc2)cc1

>  <labelValue>
no

$$$$
>  <compound>
CC(C)Cc1ccc(C(C)C(=O)O)cc1 (configuration not stated)

>  <labelValue>
no

$$$$

---

System: CCRIS mutagenicity, Ames/micronucleus/aberration tests
Test: CCRIS mutagenicity studies
Conditions: Test System: AMES SALMONELLA TYPHIMURIUM; Strain/Indicator: TA98; Metabolic Activation: NONE; Method: PREINCUBATION
Calls of active or inactive are those of the source. How the calls were made is not given here.
Classes used: YES (active), NO (inactive)

>  <molecule>
O=S(=O)(O)OCc1c2ccccc2cc2c1ccc1ccccc12

>  <labelValue>
YES

$$$$
>  <molecule>
O=C(O)/C=C/c1ccc([N+](=O)[O-])cc1

>  <labelValue>
YES

$$$$
>  <molecule>
Nc1cc(Cl)c([N+](=O)[O-])cc1O

>  <labelValue>
YES

$$$$
>  <molecule>
CCCCN(CC)CC

>  <labelValue>
NO

$$$$
>  <molecule>
S=c1nc[nH]c2nc[nH]c12

>  <labelValue>
NO

$$$$
>  <molecule>
[O-][Cl+3]([O-])([O-])O

>  <labelValue>
NO

$$$$
>  <molecule>
O=C(O)/C(Cl)=C(\CCl)C(Cl)Cl

>  <labelValue>
YES

$$$$
>  <molecule>
C1=CC2C3C=CC(C3)C2C1 (centres undefined)

>  <labelValue>
NO

$$$$
>  <molecule>
Clc1ccc(Cl)c(Cl)c1Cl

>  <labelValue>
NO

$$$$
>  <molecule>
CC(=O)OCc1cccc([N+](=O)[O-])c1

>  <labelValue>
NO

$$$$
>  <molecule>
COc1c(C(C)(C)C)cc([N+](=O)[O-])c(C)c1[N+](=O)[O-]

>  <labelValue>
NO

$$$$
>  <molecule>
CC1=CC(=O)c2c(O)cccc2C1=O

>  <labelValue>
NO

$$$$
>  <molecule>
O=[N+]([O-])c1ccc2c3c1ccc1cccc(c13)[C@@H](O)[C@@H]2O

>  <labelValue>
YES

$$$$
>  <molecule>
ClC(Cl)Cl

>  <labelValue>
NO

$$$$

---

Tested on: CCRIS mutagenicity, Ames/micronucleus/aberration tests
Experiment: CCRIS mutagenicity studies
Conditions: Test System: AMES SALMONELLA TYPHIMURIUM; Strain/Indicator: TA97A; Metabolic Activation: NONE; Method: STANDARD PLATE
Active and inactive are the calls of the source. The rule behind the calls is not given here.
Labels: 1 (active), -1 (inactive)

>  <compound>
CC(C)Cc1ccc(C(C)C(=O)O)cc1 (configuration not stated)

>  <labelValue>
-1

$$$$
>  <compound>
NN1C(=O)c2ccccc2C1=O

>  <labelValue>
-1

$$$$
>  <compound>
C(=N\NC1=NCCN1)/c1c2ccccc2c(/C=N/NC2=NCCN2)c2ccccc12

>  <labelValue>
1

$$$$
>  <compound>
COC1=CC(=O)c2c(nc(C)c3c2[nH]c2ccncc23)C1=O

>  <labelValue>
1

$$$$
>  <compound>
C=C(C)C(=O)OCC(O)COc1ccc(C(C)(C)c2ccc(OCC(O)COC(=O)C(=C)C)cc2)cc1 (configuration not stated)

>  <labelValue>
-1

$$$$
>  <compound>
O=[N+]([O-])c1ccc2c(CCO)c[nH]c2c1

>  <labelValue>
1

$$$$
>  <compound>
CCN(CC)Cc1cc(Nc2ccnc3cc(Cl)ccc23)ccc1O

>  <labelValue>
-1

$$$$
>  <compound>
COCCO

>  <labelValue>
-1

$$$$
>  <compound>
Cc1cc(O)c2c(c1)C(=O)c1cc(O)cc(O)c1C2=O

>  <labelValue>
-1

$$$$
>  <compound>
CN(C)c1ccc(C(=C2C=CC(=[N+](C)C)C=C2)c2ccccc2)cc1

>  <labelValue>
-1

$$$$
>  <compound>
CC[n+]1c(-c2ccccc2)c2cc(N)ccc2c2ccc(N)cc21

>  <labelValue>
-1

$$$$
>  <compound>
CNC(=O)/C=C(\C)OP(=O)(OC)OC

>  <labelValue>
-1

$$$$

---

System: CCRIS mutagenicity, Ames/micronucleus/aberration tests
Assay: CCRIS mutagenicity studies
Conditions: Test System: AMES SALMONELLA TYPHIMURIUM; Strain/Indicator: TA100; Metabolic Activation: RAT, LIVER, S-9, AROCLOR 1254; Method: STANDARD PLATE
Active and inactive are the calls of the source. The rule behind the calls is not given here.
Classes used: active, inactive

>  <molecule>
CC(C)(C)NCC(O)COc1cccc2c1CC(O)C(O)C2 (stereo unspecified)

>  <systemUnderTest>
CCRIS mutagenicity, Ames/micronucleus/aberration tests

>  <labelValue>
inactive

$$$$
>  <molecule>
C=C(C)OC(C)=O

>  <systemUnderTest>
CCRIS mutagenicity, Ames/micronucleus/aberration tests

>  <labelValue>
inactive

$$$$
>  <molecule>
[O]=[Cr](=[O])([OH])[O][Cr](=[O])(=[O])[OH]

>  <systemUnderTest>
CCRIS mutagenicity, Ames/micronucleus/aberration tests

>  <labelValue>
active

$$$$
>  <molecule>
COc1cc(N)c(C)cc1N

>  <systemUnderTest>
CCRIS mutagenicity, Ames/micronucleus/aberration tests

>  <labelValue>
inactive

$$$$
>  <molecule>
C=CC(=O)OCC(C)(C)C

>  <systemUnderTest>
CCRIS mutagenicity, Ames/micronucleus/aberration tests

>  <labelValue>
inactive

$$$$
>  <molecule>
C/C=C/C=C/C=O

>  <systemUnderTest>
CCRIS mutagenicity, Ames/micronucleus/aberration tests

>  <labelValue>
inactive

$$$$
>  <molecule>
CC(=O)N(O)c1ccc(Cl)c(Cl)c1

>  <systemUnderTest>
CCRIS mutagenicity, Ames/micronucleus/aberration tests

>  <labelValue>
inactive

$$$$
>  <molecule>
O=[N+]([O-])C1=Cc2c3ccc4ccccc4c3cc3cccc1c23

>  <systemUnderTest>
CCRIS mutagenicity, Ames/micronucleus/aberration tests

>  <labelValue>
inactive

$$$$
>  <molecule>
N[C@@H](CS)C(=O)O

>  <systemUnderTest>
CCRIS mutagenicity, Ames/micronucleus/aberration tests

>  <labelValue>
active

$$$$
>  <molecule>
ClCBr

>  <systemUnderTest>
CCRIS mutagenicity, Ames/micronucleus/aberration tests

>  <labelValue>
active

$$$$
>  <molecule>
COC(=O)c1ccc(C(=O)OC)cc1

>  <systemUnderTest>
CCRIS mutagenicity, Ames/micronucleus/aberration tests

>  <labelValue>
inactive

$$$$
>  <molecule>
O=S(O)O

>  <systemUnderTest>
CCRIS mutagenicity, Ames/micronucleus/aberration tests

>  <labelValue>
inactive

$$$$
>  <molecule>
O=S(=O)(O)c1c(N=Nc2c(O)ccc3ccccc23)ccc2ccccc12

>  <systemUnderTest>
CCRIS mutagenicity, Ames/micronucleus/aberration tests

>  <labelValue>
inactive

$$$$
>  <molecule>
CN(C)c1ccc(-c2ccc(N(C)C)cc2)cc1

>  <systemUnderTest>
CCRIS mutagenicity, Ames/micronucleus/aberration tests

>  <labelValue>
inactive

$$$$
>  <molecule>
C[C@@H]1C[C@@H]2c3cccc4[nH]cc(c34)C[C@H]2N(C)C1

>  <systemUnderTest>
CCRIS mutagenicity, Ames/micronucleus/aberration tests

>  <labelValue>
active

$$$$
>  <molecule>
CCC(=O)OCC(=O)[C@@]1(OC(=O)CC)[C@H](C)C[C@H]2[C@H]3[C@H]([C@@H](O)C[C@@]21C)[C@@]1(C)C=CC(=O)C=C1C[C@H]3Cl

>  <systemUnderTest>
CCRIS mutagenicity, Ames/micronucleus/aberration tests

>  <labelValue>
inactive

$$$$
>  <molecule>
CCOc1cc(N=Nc2ccc(N(CC)CC)cc2)ccc1N=Nc1c(S(=O)(=O)O)cc2ccc(N)cc2c1O

>  <systemUnderTest>
CCRIS mutagenicity, Ames/micronucleus/aberration tests

>  <labelValue>
inactive

$$$$
>  <molecule>
O=[N+]([O-])c1ccc2c3cccc4cccc(c5c([N+](=O)[O-])ccc1c25)c43

>  <systemUnderTest>
CCRIS mutagenicity, Ames/micronucleus/aberration tests

>  <labelValue>
active

$$$$
>  <molecule>
CC(=O)N(O)c1ccc(Br)cc1

>  <systemUnderTest>
CCRIS mutagenicity, Ames/micronucleus/aberration tests

>  <labelValue>
inactive

$$$$
>  <molecule>
O=S(=O)(O)N(S(=O)(=O)O)S(=O)(=O)O

>  <systemUnderTest>
CCRIS mutagenicity, Ames/micronucleus/aberration tests

>  <labelValue>
inactive

$$$$
>  <molecule>
Cc1ccc(N)cc1N

>  <systemUnderTest>
CCRIS mutagenicity, Ames/micronucleus/aberration tests

>  <labelValue>
active

$$$$
>  <molecule>
OCCNc1ccc(N=Nc2ccc(N(CCO)CCO)cc2)cc1

>  <systemUnderTest>
CCRIS mutagenicity, Ames/micronucleus/aberration tests

>  <labelValue>
inactive

$$$$
>  <molecule>
O=[N+]([O-])c1c2c(c3ccc4cccc5ccc1c3c45)C=CCC2

>  <systemUnderTest>
CCRIS mutagenicity, Ames/micronucleus/aberration tests

>  <labelValue>
inactive

$$$$
>  <molecule>
Cc1cc(N=Nc2ccccc2C)ccc1N

>  <systemUnderTest>
CCRIS mutagenicity, Ames/micronucleus/aberration tests

>  <labelValue>
active

$$$$
>  <molecule>
O=C(OCCBr)[C@@H](O)[C@H](O)C(=O)OCCBr

>  <systemUnderTest>
CCRIS mutagenicity, Ames/micronucleus/aberration tests

>  <labelValue>
active

$$$$
>  <molecule>
NC(=O)[C@@H]1CCCN1C(=O)[C@H](Cc1cnc[nH]1)NC(=O)[C@@H]1CCC(=O)N1

>  <systemUnderTest>
CCRIS mutagenicity, Ames/micronucleus/aberration tests

>  <labelValue>
inactive

$$$$
